The reader will find reported pIC50 values listed item by item below.
- Test system: S. Typhi PhoP-promoter GFP reporter, fluorescence, 4 h
- test.method.notes: PhoP regulon inhibitor project modified counter assay, GFP fluorescence readout, dose response (AID 1985)
pIC50: −log10 of the molar value.
observable: pIC50

[[record]]
compound = "NC1=NC[C@H](Cc2ccccc2)N1CCCCC1CCCCC1"
reading = 4.44

[[record]]
compound = "CCC(O)(CC)C(=O)N/N=C/c1cc(Br)cc(Br)c1O"
reading = 4.22

[[record]]
compound = "O=C(Nc1cccc([N+](=O)[O-])c1)Nc1cccs1"
reading = 4.34

[[record]]
compound = "Cc1ccc2c(c1)N/C(=C(\\C=C(/Cl)[N+](=O)[O-])[N+](=O)[O-])N2"
reading = 4.09

[[record]]
compound = "Cn1c(SCC(=O)N/N=C/c2ccc([N+](=O)[O-])s2)nnc1-c1ccc(Cl)cc1"
reading = 4.41

[[record]]
compound = "COc1ccc(CNCCC(c2ccccc2)c2ccc3c(c2)OCO3)cc1 (stereo unspecified)"
reading = 3.83

[[record]]
compound = "Cc1cc(C)c2nc(C)cc(N/N=C/c3ccc(O)cc3)c2c1"
reading = 4.30

[[record]]
compound = "Cc1cc(C)n(-c2nc(SCCN(C)C)c3c4c(sc3n2)CCCC4)n1"
reading = 4.10

[[record]]
compound = "CCOc1cccc(/C=N/NC(=O)c2cc(C3CC3)[nH]n2)c1O"
reading = 3.87

[[record]]
compound = "CN(C)CCCN(C(=O)CCc1ccccc1)c1nc2ccc(Br)cc2s1"
reading = 3.96

[[record]]
compound = "C/C(Cn1nnc([N+](=O)[O-])n1)=N\\NC(=O)c1ccccc1"
reading = 3.83

[[record]]
compound = "CCS(=O)(=O)c1ccc2oc(=O)c(/C=C(\\O)c3ccc(Cl)cc3)nc2c1"
reading = 4.19

[[record]]
compound = "Cc1cc(C)c(NC(=O)C[N+](C)(C)CC(O)COc2cccc3ccccc23)c(C)c1 (stereo unspecified)"
reading = 4.12

[[record]]
compound = "CCc1ccc2c(c1)Sc1ccccc1CC2N1CCN(C)CC1 (stereo unspecified)"
reading = 4.11

[[record]]
compound = "COc1cccc(Nc2nc(NCCO)c3ccccc3n2)c1"
reading = 4.07

[[record]]
compound = "CCCCC(=O)NC(=S)NNC(=O)CC"
reading = 4.30

[[record]]
compound = "CNCCCN1c2ccccc2CCc2ccccc21"
reading = 3.84

[[record]]
compound = "O=C(N/N=C/c1cc([N+](=O)[O-])ccc1O)C1CC1"
reading = 4.83

[[record]]
compound = "COC12C(COC(N)=O)C3=C(C(=O)C(C)=C(N)C3=O)N1CC1C2N1C (stereo unspecified)"
reading = 4.51

[[record]]
compound = "C#CCOCCOCCOCCNc1nc(N2CCN(C(=O)CCCCCCCCCCNC(=O)[C@H](CCCCN)n3cc(C)nn3)CC2)nc(N2CCN(C(=O)CCCCCCCCCCNC(=O)[C@H](CCCN=C(N)N)n3cc(C[C@@H](C)CC)nn3)CC2)n1"
reading = 4.50

[[record]]
compound = "CCN1CCCC1CNC(=O)c1cc2cc(F)ccc2[nH]1 (stereo unspecified)"
reading = 4.04


---

- System: S. Typhi PhoP-promoter GFP reporter, fluorescence, 4 h
- test.method.notes: PhoP regulon inhibitor project modified counter assay, GFP fluorescence readout, dose response (AID 1985)
pIC50: −log10 of the molar value.
observable: pIC50

[[record]]
compound = "CC[C@@H](C)[C@H](CNC)NC[C@@H](Cc1cccc2ccccc12)NCCc1cccc(C(F)(F)F)c1"
tested_target = "S. Typhi PhoP-promoter GFP reporter, fluorescence, 4 h"
observable = "pIC50"
reading = 4.66

[[record]]
compound = "Nc1nc2ccccc2n1CCOc1ccccc1Cl"
tested_target = "S. Typhi PhoP-promoter GFP reporter, fluorescence, 4 h"
observable = "pIC50"
reading = 4.20

[[record]]
compound = "O=[N+]([O-])c1cc([N+](=O)[O-])c2cccnc2c1Oc1ccccc1O"
tested_target = "S. Typhi PhoP-promoter GFP reporter, fluorescence, 4 h"
observable = "pIC50"
reading = 4.06

[[record]]
compound = "CCOC(=O)N/N=C\\c1ccc([N+](=O)[O-])o1"
tested_target = "S. Typhi PhoP-promoter GFP reporter, fluorescence, 4 h"
observable = "pIC50"
reading = 4.63

[[record]]
compound = "Nc1nonc1C(=O)N/N=C/c1cc(Br)ccc1O"
tested_target = "S. Typhi PhoP-promoter GFP reporter, fluorescence, 4 h"
observable = "pIC50"
reading = 4.90

[[record]]
compound = "c1cc2c(cc1C1CCCCC1)c1c3n2CCCNC3CCC1 (stereo unspecified)"
tested_target = "S. Typhi PhoP-promoter GFP reporter, fluorescence, 4 h"
observable = "pIC50"
reading = 4.40

